Where do these numbers come from? They come from PubChem BioAssay AID463204.

Would you mind telling me the reported AC50 of each entry?
# Test system: S. cerevisiae Mot1-301 ts growth rescue, BacTiter-Glo ATP luminescence
# experiment summary: restored Mot1-301 yeast growth at 38.5C – whole organism, S. cerevisiae, Mot1-301 ts mutant, luminescence, dose retest, SUMOylation pathway inhibitor project, confirmation (AID 463204);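 note: growth at restrictive 38.5 degrees C of Mot1-301 OY566 strain; actives raise luminescence by restoring growth of the ts mutant at high temperature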
Active and inactive are the calls of the source.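 Rule for the calls: active = AC50 no more than ten times the top concentration tested, that is within one log above it; inconclusive = flat curve fit with activity between 30% and 70%, or invalid poor fit; inactive = AC50 beyond ten times the top tested dose.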

// AC50 lookup, key: Brc1ccc(-c2cn3cccnc3n2)cc1 > 42 µM (inactive)

// AC50 lookup, key: Cc1sc2nc(N)sc2c1C > 42 µM (inactive)

// AC50 lookup, key: CCOC(=O)c1cc2c(ccn2-c2ccc(F)cc2)n1CC(=O)N1CCN(C(=O)c2ccco2)CC1 > 42 µM (inactive)

// AC50 lookup, key: CCSc1nc2ccccc2c(=O)n1C1CCOC(C)(C)C1 (centres undefined) > 42 µM (inactive)

// AC50 lookup, key: COc1cccc(C2CC(c3cccc(NS(C)(=O)=O)c3)=NN2C(=O)c2ccccc2)c1OC (centres undefined) > 42 µM (inactive)

// AC50 lookup, key: CSc1ccccc1-c1nc(-c2ccncc2)no1 > 42 µM (inactive)

// AC50 lookup, key: Cc1cc2c(C)ccc(C)c2nc1SCC(=O)c1cccs1 > 42 µM (inactive)

// AC50 lookup, key: O=C1CCCN1CCC(=O)N1CCCC(N2CCN(c3ccccc3F)CC2)C1 (centres undefined) > 42 µM (inactive)

// AC50 lookup, key: COc1cc(C(=O)Nc2ccc3c(c2)OCCO3)ccc1-n1cnnn1 > 42 µM (inactive)

// AC50 lookup, key: CCCC(O)(CCC)C(=O)NNc1ccc(C)cc1 > 42 µM (inactive)

// AC50 lookup, key: Cc1ccccc1C(=O)NNC(=S)Nc1cccc(C(F)(F)F)c1 > 42 µM (inactive)

// AC50 lookup, key: CC(C(=O)NCCN1CCOCC1)(c1ccccc1)c1ccccc1 > 42 µM (inactive)

// AC50 lookup, key: N#Cc1c2ccc([N+](=O)[O-])cc2[n+]([O-])n1-c1ccccc1 2.9 µM

// AC50 lookup, key: CN1C(=O)C(=Cc2ccc(N3CCCCC3)o2)C(=O)N(C)C1=S > 42 µM (inactive)
